The values you see were collected from patent US4923853A.

PROCEDURE DETAILS: Solubility of benomyl under the effect of β-cyclodextrin (shaking in water, UV)
Type: physicochemical
STUDY CONDITIONS: water, 40 minutes, water 25° C.; weighed in 1000 μg/ml benomyl, or 170 μg benomyl + 830 μg/ml β-CD; read-out: Amount of dissolved benomyl
READOUT: solubility thermodynamic at 40 min
Note: state the figure and append the unit.

Please give the measured solubility thermodynamic at 40 min for this molecule: CCCCNC(=O)n1c(NC(=O)OC)nc2ccccc21 [benomyl] 4.5 µg/mL

* * *

PROCEDURE DETAILS: Solubility of benomyl under the effect of β-cyclodextrin (shaking in water, UV)
Type: physicochemical
STUDY CONDITIONS: water, 120 minutes, water 25° C.; weighed in 5000 μg/ml benomyl, or 850 μg benomyl + 4150 μg/ml β-CD; read-out: Amount of dissolved benomyl
READOUT: solubility thermodynamic at 2 h (µg/mL)
Answers are plain numbers, in µg/mL.

Any idea what solubility thermodynamic at 2 h was measured for CCCCNC(=O)n1c(NC(=O)OC)nc2ccccc21 ? 9.5

* * *

PROCEDURE DETAILS: Solubility of benomyl from various materials incl. Fundazol under the effect of β-cyclodextrin
Format: physicochemical
STUDY CONDITIONS: 10 minutes, shaking in water at 25° C.; read-out: Dissolved benomyl
READOUT: solubility thermodynamic at 10 min (µg/mL)
Numbers only, in µg/mL.

What does the data say about its solubility thermodynamic at 10 min? Entry: CCCCNC(=O)n1c(NC(=O)OC)nc2ccccc21 2

* * *

PROCEDURE DETAILS: Solubility of benomyl from various materials incl. Fundazol under the effect of β-cyclodextrin
Assay type: physicochemical
STUDY CONDITIONS: 80 minutes, shaking in water at 25° C.; read-out: Dissolved benomyl
READOUT: solubility thermodynamic at 80 min (µg/mL)
Give bare numbers, in µg/mL.

Fill in: solubility thermodynamic at 80 min of CCCCNC(=O)n1c(NC(=O)OC)nc2ccccc21 [benomyl] is ___ 7

* * *

PROCEDURE DETAILS: Solubility of benomyl under the effect of β-cyclodextrin (shaking in water, UV)
Format: physicochemical
STUDY CONDITIONS: water, 120 minutes, water 25° C.; weighed in 1000 μg/ml benomyl, or 170 μg benomyl + 830 μg/ml β-CD; read-out: Amount of dissolved benomyl
READOUT: solubility thermodynamic at 2 h

Return reported solubility thermodynamic at 2 h; argument: CCCCNC(=O)n1c(NC(=O)OC)nc2ccccc21 5 µg/mL

* * *

PROCEDURE DETAILS: Solubility of benomyl under the effect of β-cyclodextrin (shaking in water, UV)
Format: physicochemical
STUDY CONDITIONS: water, 20 minutes, water 25° C.; weighed in 1000 μg/ml benomyl, or 170 μg benomyl + 830 μg/ml β-CD; read-out: Amount of dissolved benomyl
READOUT: solubility thermodynamic at 20 min (µg/mL)
Answers are plain numbers, in µg/mL.

Bench note: what solubility thermodynamic at 20 min did CCCCNC(=O)n1c(NC(=O)OC)nc2ccccc21 [benomyl] show? 3

* * *

PROCEDURE DETAILS: Solubility of benomyl under the effect of β-cyclodextrin (shaking in water, UV)
Assay type: physicochemical
STUDY CONDITIONS: water, 40 minutes, water 25° C.; weighed in 5000 μg/ml benomyl, or 850 μg benomyl + 4150 μg/ml β-CD; read-out: Amount of dissolved benomyl
READOUT: solubility thermodynamic at 40 min (µg/mL)
Give bare numbers, in µg/mL.

// lookup solubility thermodynamic at 40 min for CCCCNC(=O)n1c(NC(=O)OC)nc2ccccc21 6

* * *

PROCEDURE DETAILS: Solubility of benomyl from various materials incl. Fundazol under the effect of β-cyclodextrin
Type: physicochemical
STUDY CONDITIONS: 160 minutes, shaking in water at 25° C.; read-out: Dissolved benomyl
Description: Benomyl is put on the market under the commercial name Fundazol 50 WP; benomyl active ingredient content: 50%. In Table 3 the solubility data of benomyl, a mixture of benomyl and cyclodextrin, Fundazol 50 WP, and a mixture of Fundazol 50 WP and cyclodextrin are shown. In each experiment […] of the test substance are weighed in and shaken at 25° C. […]
READOUT: solubility thermodynamic at 160 min (µg/mL)
Answers are plain numbers, in µg/mL.

Look up solubility thermodynamic at 160 min: CCCCNC(=O)n1c(NC(=O)OC)nc2ccccc21 9

* * *

PROCEDURE DETAILS: Solubility of benomyl from various materials incl. Fundazol under the effect of β-cyclodextrin
Format: physicochemical
STUDY CONDITIONS: 20 minutes, shaking in water at 25° C.; read-out: Dissolved benomyl
Procedure: Benomyl is put on the market under the commercial name Fundazol 50 WP; benomyl active ingredient content: 50%. In Table 3 the solubility data of benomyl, a mixture of benomyl and cyclodextrin, Fundazol 50 WP, and a mixture of Fundazol 50 WP and cyclodextrin are shown. In each experiment […] of the test substance are weighed in and shaken at 25° C. […]
READOUT: solubility thermodynamic at 20 min (µg/mL)
Give bare numbers, in µg/mL.

Which measured solubility thermodynamic at 20 min value corresponds to CCCCNC(=O)n1c(NC(=O)OC)nc2ccccc21 ? 5

* * *

PROCEDURE DETAILS: Solubility of benomyl from various materials incl. Fundazol under the effect of β-cyclodextrin
Format: physicochemical
STUDY CONDITIONS: 120 minutes, shaking in water at 25° C.; read-out: Dissolved benomyl
READOUT: solubility thermodynamic at 2 h (µg/mL)
Give bare numbers, in µg/mL.

I would be grateful if you could share the reported solubility thermodynamic at 2 h for CCCCNC(=O)n1c(NC(=O)OC)nc2ccccc21 . 8

* * *

PROCEDURE DETAILS: Solubility of benomyl under the effect of β-cyclodextrin (shaking in water, UV)
Type: physicochemical
STUDY CONDITIONS: water, 20 minutes, water 25° C.; weighed in 5000 μg/ml benomyl, or 850 μg benomyl + 4150 μg/ml β-CD; read-out: Amount of dissolved benomyl
READOUT: solubility thermodynamic at 20 min (µg/mL)
One number for each entry, in µg/mL.

Data request, read-out solubility thermodynamic at 20 min, for CCCCNC(=O)n1c(NC(=O)OC)nc2ccccc21 [benomyl] 4

* * *

PROCEDURE DETAILS: Solubility of benomyl under the effect of β-cyclodextrin (shaking in water, UV)
Assay type: physicochemical
STUDY CONDITIONS: water, 10 minutes, water 25° C.; weighed in 5000 μg/ml benomyl, or 850 μg benomyl + 4150 μg/ml β-CD; read-out: Amount of dissolved benomyl
READOUT: solubility thermodynamic at 10 min (µg/mL)
One number for each entry, in µg/mL.

Look up solubility thermodynamic at 10 min: CCCCNC(=O)n1c(NC(=O)OC)nc2ccccc21 [benomyl] 3.5

* * *

PROCEDURE DETAILS: Solubility of benomyl under the effect of β-cyclodextrin (shaking in water, UV)
Format: physicochemical
STUDY CONDITIONS: water, 80 minutes, water 25° C.; weighed in 5000 μg/ml benomyl, or 850 μg benomyl + 4150 μg/ml β-CD; read-out: Amount of dissolved benomyl
Description: (Benomyl and benomyl+β-cyclodextrin, respectively, are shaken in water at 25° C., the samples are filtered and the dissolved benomyl contents of the filtrates are determined by UV spectrophotometry).
READOUT: solubility thermodynamic at 80 min
Please give the number followed by its unit.

Any idea what its solubility thermodynamic at 80 min is? The compound is CCCCNC(=O)n1c(NC(=O)OC)nc2ccccc21 8 µg/mL
